- Target Under Test: Tyrosine-protein kinase Lck (Homo sapiens)
- Sequence (P06239 whole entry): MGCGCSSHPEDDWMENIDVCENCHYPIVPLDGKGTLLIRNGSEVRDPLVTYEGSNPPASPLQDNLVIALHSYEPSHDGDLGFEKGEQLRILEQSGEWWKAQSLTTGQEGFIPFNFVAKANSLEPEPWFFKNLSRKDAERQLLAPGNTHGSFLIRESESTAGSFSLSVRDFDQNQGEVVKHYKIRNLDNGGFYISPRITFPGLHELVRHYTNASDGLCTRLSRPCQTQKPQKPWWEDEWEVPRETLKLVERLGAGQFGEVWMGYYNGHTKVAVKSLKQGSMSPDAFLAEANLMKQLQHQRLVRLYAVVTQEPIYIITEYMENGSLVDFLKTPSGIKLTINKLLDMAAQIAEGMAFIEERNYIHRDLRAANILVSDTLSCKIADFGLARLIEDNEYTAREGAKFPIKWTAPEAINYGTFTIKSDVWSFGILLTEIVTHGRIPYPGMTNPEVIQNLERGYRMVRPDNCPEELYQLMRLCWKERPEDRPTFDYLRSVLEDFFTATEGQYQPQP
- Protocol Text: DRUGMATRIX: Protein Tyrosine Kinase, LCK enzyme inhibition (substrate: Poly(Glu:Tyr))
- Assay type: cell-based, Insect cells
- Condition Label: insect cells; Not Active = under 50% inhibition at 10 µM

Molecule: CN[C@@H]1[C@H](O)[C@H](NC)[C@H]2O[C@@]3(O)C(=O)C[C@@H](C)O[C@H]3O[C@@H]2[C@H]1O [SPECTINOMYCIN]
IC50: Not Active
//
Molecule: CCN[C@@H](C)Cc1cccc(C(F)(F)F)c1 [DEXFENFLURAMINE]
IC50: Not Active
//
Molecule: OCCN1CCN(CCCN2c3ccccc3Sc3ccc(C(F)(F)F)cc32)CC1 [FLUPHENAZINE]
IC50: Not Active
//
Molecule: CC(=O)Nc1nnc(S(N)(=O)=O)s1 [ACETAZOLAMIDE]
IC50: Not Active
//
Molecule: C[C@H](C(=O)O)c1cccc(C(=O)c2ccccc2)c1 [DEXKETOPROFEN]
IC50: Not Active
//
Molecule: CC(C(=O)O)c1ccc(CC2CCCC2=O)cc1 (stereo not given) [LOXOPROFEN]
IC50: Not Active
//
Molecule: O=C(O)Cc1ccc(-c2ccccc2)cc1 [FELBINAC]
IC50: Not Active
//
Molecule: COc1ccc(Cc2nccc3cc(OC)c(OC)cc23)cc1OC [PAPAVERINE]
IC50: Not Active
//
Molecule: C=C1/C(=C\C=C2/CCC[C@]3(C)[C@@H]([C@H](C)CCCC(C)C)CC[C@@H]23)C[C@@H](O)C[C@@H]1O [ALFACALCIDOL]
IC50: Not Active
//
Molecule: CCn1cc(C(=O)O)c(=O)c2cc(F)c(N3CCNCC3)nc21 [ENOXACIN]
IC50: Not Active
//
Molecule: CC[C@H](C)C(=O)O[C@H]1C[C@@H](C)C=C2C=C[C@H](C)[C@H](CC[C@@H]3C[C@@H](O)CC(=O)O3)[C@H]21 [LOVASTATIN]
IC50: Not Active
//
Molecule: C[C@H]([C@](O)(Cn1cncn1)c1ccc(F)cc1F)S(C)(=O)=O [GENACONAZOLE]
IC50: Not Active
//
Molecule: CC(C)(Sc1cc(C(C)(C)C)c(O)c(C(C)(C)C)c1)Sc1cc(C(C)(C)C)c(O)c(C(C)(C)C)c1 [PROBUCOL]
IC50: Not Active
//
Molecule: CCc1oc2ccccc2c1C(=O)c1cc(Br)c(O)c(Br)c1 [BENZBROMARONE]
IC50: Not Active
//
Molecule: CCCCCC[C@H]1C(=O)O[C@H](C)[C@H](NC(=O)c2cccc(NC=O)c2O)C(=O)O[C@@H](C)[C@@H]1OC(=O)CC(C)C [ANTIMYCIN A]
IC50: Not Active
//
Molecule: CC(=O)OCC(CCn1cnc2cnc(N)nc21)COC(C)=O [FAMCICLOVIR]
IC50: Not Active
//
Molecule: CC(C)(Oc1ccc(C2CC2(Cl)Cl)cc1)C(=O)O (stereo not given) [CIPROFIBRATE]
IC50: Not Active
//
Molecule: Oc1ccccc1O [CATECHOL]
IC50: Not Active
//
Molecule: CCN(CC)CC#CCOC(=O)C(O)(c1ccccc1)C1CCCCC1 (stereo not given) [OXYBUTYNIN]
IC50: Not Active
//
Molecule: CCCCC1C(=O)N(c2ccccc2)N(c2ccccc2)C1=O [PHENYLBUTAZONE]
IC50: Not Active

---

- Target Under Test: Muscarinic acetylcholine receptor M2 (Homo sapiens, UniProt P08172); also: in other assays of this panel Not Active means under 50% inhibition at 10 µM
- Sequence (P08172 whole entry): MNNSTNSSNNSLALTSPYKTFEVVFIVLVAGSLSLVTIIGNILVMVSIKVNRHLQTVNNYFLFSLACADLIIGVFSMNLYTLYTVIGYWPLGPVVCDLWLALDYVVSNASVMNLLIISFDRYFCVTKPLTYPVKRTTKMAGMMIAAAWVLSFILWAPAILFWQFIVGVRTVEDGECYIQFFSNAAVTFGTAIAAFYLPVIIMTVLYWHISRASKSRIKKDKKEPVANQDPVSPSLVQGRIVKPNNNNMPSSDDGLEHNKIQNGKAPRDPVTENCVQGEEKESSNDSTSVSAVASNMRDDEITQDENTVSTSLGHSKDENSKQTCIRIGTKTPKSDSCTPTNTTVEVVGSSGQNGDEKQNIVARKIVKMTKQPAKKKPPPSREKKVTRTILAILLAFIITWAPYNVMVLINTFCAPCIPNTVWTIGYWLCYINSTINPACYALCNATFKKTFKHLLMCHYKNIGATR
- Type: cell membranes, CHO-K1, Membrane
- Condition Label: cho-k1

Molecule: CCCCC1C(=O)N(c2ccccc2)N(c2ccccc2)C1=O
IC50: Not Active
//
Molecule: O=P1(N(CCCl)CCCl)NCCCO1 (centres undefined) [CYCLOPHOSPHAMIDE ANHYDROUS]
IC50: Not Active
//
Molecule: CC(C(=O)O)c1ccc(-c2ccccc2)c(F)c1 (centres undefined)
IC50: Not Active
//
Molecule: NC(=O)N1c2ccccc2C=Cc2ccccc21 [CARBAMAZEPINE]
IC50: Not Active
//
Molecule: COc1ccc(/C=C/C(=O)Nc2ccccc2C(=O)O)cc1OC
IC50: Not Active
//
Molecule: CNC(=C[N+](=O)[O-])NCCSCc1csc(CN(C)C)n1
IC50: Not Active
//
Molecule: O=C(O)c1cccnc1
IC50: Not Active
//
Molecule: NC[C@H]1O[C@H](O[C@H]2[C@H](O)[C@@H](O[C@H]3O[C@H](CO)[C@@H](O)[C@H](N)[C@H]3O)[C@H](N)C[C@@H]2N)[C@H](O)[C@@H](O)[C@@H]1O
IC50: Not Active
//
Molecule: CC(C)(C)c1ccc(S(=O)(=O)/C=C/C#N)cc1
IC50: Not Active

---

- Target Under Test: Cytochrome P450 2D6 (Homo sapiens); also: in other assays of this panel Not Active means under 50% inhibition at 10 µM
- Sequence (P10635 whole entry): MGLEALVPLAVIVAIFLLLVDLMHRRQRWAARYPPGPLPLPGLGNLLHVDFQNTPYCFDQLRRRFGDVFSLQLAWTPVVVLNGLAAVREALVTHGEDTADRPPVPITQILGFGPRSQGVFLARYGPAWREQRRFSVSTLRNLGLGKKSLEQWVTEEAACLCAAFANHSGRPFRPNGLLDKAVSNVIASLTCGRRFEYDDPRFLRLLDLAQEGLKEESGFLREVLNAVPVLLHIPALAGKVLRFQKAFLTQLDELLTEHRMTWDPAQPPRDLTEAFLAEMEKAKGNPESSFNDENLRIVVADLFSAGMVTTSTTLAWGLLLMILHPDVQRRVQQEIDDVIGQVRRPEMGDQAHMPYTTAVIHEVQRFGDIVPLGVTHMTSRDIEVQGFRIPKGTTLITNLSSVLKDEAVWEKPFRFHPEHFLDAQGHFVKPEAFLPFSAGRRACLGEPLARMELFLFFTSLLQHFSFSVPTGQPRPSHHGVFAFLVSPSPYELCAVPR
- Condition Label: bti-tn-5b1-4

Substance: THIMEROSAL
Target Under Test: Cytochrome P450 2D6 (Homo sapiens); also: in other assays of this panel Not Active means under 50% inhibition at 10 µM
IC50: 3 µM
//
Substance: INSULIN HUMAN
Target Under Test: Cytochrome P450 2D6 (Homo sapiens); also: in other assays of this panel Not Active means under 50% inhibition at 10 µM
IC50: Not Active
//
Substance: COBALT(II) ACETYLACETONATE
Target Under Test: Cytochrome P450 2D6 (Homo sapiens); also: in other assays of this panel Not Active means under 50% inhibition at 10 µM
IC50: Not Active
//
Substance: POLYVINYL ALCOHOL
Target Under Test: Cytochrome P450 2D6 (Homo sapiens); also: in other assays of this panel Not Active means under 50% inhibition at 10 µM
IC50: Not Active
//
Substance: STANNOUS FLUORIDE
Target Under Test: Cytochrome P450 2D6 (Homo sapiens); also: in other assays of this panel Not Active means under 50% inhibition at 10 µM
IC50: Not Active

---

- Target Under Test: Adenosine receptor A2a (Homo sapiens, UniProt P29274)
- Sequence (P29274 whole entry): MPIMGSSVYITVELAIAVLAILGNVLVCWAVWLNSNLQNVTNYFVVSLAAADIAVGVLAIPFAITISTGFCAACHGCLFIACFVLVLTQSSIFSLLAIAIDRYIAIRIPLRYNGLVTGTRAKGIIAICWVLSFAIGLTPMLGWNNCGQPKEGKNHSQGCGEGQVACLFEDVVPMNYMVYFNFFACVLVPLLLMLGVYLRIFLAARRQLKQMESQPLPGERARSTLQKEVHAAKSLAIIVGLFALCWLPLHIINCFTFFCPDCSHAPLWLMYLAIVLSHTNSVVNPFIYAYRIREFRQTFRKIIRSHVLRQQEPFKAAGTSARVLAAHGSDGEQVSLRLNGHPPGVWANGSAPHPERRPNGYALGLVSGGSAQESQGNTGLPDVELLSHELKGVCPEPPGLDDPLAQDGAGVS
- Protocol Text: DRUGMATRIX: Adenosine A2A radioligand binding (ligand: […])
- Type: cell membranes, HEK293, Membrane
- Condition Label: Not Active = under 50% inhibition at 10 µM; read-out: Ki

Structure Notation: CCCc1nn(C)c2c(=O)[nH]c(-c3cc(S(=O)(=O)N4CCN(C)CC4)ccc3OCC)nc12
Target Under Test: Adenosine receptor A2a (Homo sapiens, UniProt P29274)
Ki: 142 nM
//
Structure Notation: COc1cc(N)nc2[nH]c(-c3ccc(F)cc3)c(-c3ccncc3)c12
Target Under Test: Adenosine receptor A2a (Homo sapiens, UniProt P29274)
Ki: 580 nM
//
Structure Notation: C#C[C@]1(O)CC[C@H]2[C@@H]3CCc4cc(O)ccc4[C@H]3CC[C@@]21C
Target Under Test: Adenosine receptor A2a (Homo sapiens, UniProt P29274)
Ki: 11800 nM

---

- Target Under Test: Polyunsaturated fatty acid lipoxygenase ALOX15 (Oryctolagus cuniculus, UniProt P12530); also: in other assays of this panel Not Active means under 50% inhibition at 10 µM
- Sequence (P12530 whole entry): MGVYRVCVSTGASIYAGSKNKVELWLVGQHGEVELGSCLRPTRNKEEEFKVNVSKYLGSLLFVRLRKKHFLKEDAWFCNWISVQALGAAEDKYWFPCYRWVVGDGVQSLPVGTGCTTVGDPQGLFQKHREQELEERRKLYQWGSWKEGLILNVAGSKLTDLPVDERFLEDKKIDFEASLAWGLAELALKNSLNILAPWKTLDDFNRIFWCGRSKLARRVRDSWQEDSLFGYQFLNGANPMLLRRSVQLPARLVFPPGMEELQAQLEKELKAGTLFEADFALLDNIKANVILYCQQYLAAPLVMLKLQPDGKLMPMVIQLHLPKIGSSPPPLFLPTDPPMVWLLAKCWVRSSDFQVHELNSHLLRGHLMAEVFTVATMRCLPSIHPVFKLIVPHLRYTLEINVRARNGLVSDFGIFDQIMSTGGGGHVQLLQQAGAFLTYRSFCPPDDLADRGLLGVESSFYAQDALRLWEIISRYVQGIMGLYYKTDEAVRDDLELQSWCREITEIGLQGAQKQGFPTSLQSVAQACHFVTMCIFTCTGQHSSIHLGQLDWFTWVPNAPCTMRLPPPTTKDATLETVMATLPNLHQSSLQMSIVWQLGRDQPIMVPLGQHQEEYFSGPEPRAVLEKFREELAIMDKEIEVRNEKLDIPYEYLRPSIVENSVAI
- Protocol Text: biochemical
- Assay type: tissue-based, Reticulocytes
- Condition Label: read-out: IC50
pIC50: −log10 of the molar value.
Test Readout: pIC50

Compound: C#C[C@]1(O)CC[C@H]2[C@@H]3CCc4cc(O)ccc4[C@H]3CC[C@@]21C
Target Under Test: Polyunsaturated fatty acid lipoxygenase ALOX15 (Oryctolagus cuniculus, UniProt P12530); also: in other assays of this panel Not Active means under 50% inhibition at 10 µM
Value: 5.25

Compound: CC(CCc1ccc(O)cc1)NCCc1ccc(O)c(O)c1 (stereo not drawn)
Target Under Test: Polyunsaturated fatty acid lipoxygenase ALOX15 (Oryctolagus cuniculus, UniProt P12530); also: in other assays of this panel Not Active means under 50% inhibition at 10 µM
Value: 6.22

Compound: Oc1ccccc1O
Target Under Test: Polyunsaturated fatty acid lipoxygenase ALOX15 (Oryctolagus cuniculus, UniProt P12530); also: in other assays of this panel Not Active means under 50% inhibition at 10 µM;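 also: inhibition of 15-lipoxygenase enzyme activity measured with linoleic acid as the substrate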
Value: 6.06

---

- Target Under Test: Cytochrome P450 2A6 (Homo sapiens, UniProt P11509); also: in other assays of this panel Not Active means under 50% inhibition at 10 µM
- Sequence (P11509 whole entry): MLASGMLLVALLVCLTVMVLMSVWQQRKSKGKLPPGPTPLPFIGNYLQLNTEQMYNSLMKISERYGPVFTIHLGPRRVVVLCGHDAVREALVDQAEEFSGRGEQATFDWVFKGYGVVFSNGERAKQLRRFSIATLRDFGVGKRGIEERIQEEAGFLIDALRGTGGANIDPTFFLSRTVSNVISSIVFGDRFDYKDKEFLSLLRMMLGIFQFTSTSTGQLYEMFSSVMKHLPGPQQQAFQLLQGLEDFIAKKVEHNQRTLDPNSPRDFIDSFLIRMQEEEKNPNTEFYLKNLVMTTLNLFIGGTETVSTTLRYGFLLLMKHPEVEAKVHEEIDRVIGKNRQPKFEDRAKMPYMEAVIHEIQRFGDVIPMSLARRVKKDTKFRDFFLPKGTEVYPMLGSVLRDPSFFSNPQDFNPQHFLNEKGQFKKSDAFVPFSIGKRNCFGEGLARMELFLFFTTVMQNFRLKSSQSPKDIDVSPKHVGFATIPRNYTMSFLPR
- Condition Label: bti-tn-5b1-4

Compound: Clc1cc2c(cc1Cl)Oc1cc(Cl)c(Cl)cc1O2
Ki: Not Active
//
Compound: NC(=O)N1c2ccccc2C=Cc2ccccc21 [CARBAMAZEPINE]
Ki: Not Active
//
Compound: CN(CCOc1ccc(CC2SC(=O)NC2=O)cc1)c1ccccn1 (stereo not drawn)
Ki: Not Active
//
Compound: O=C(O)c1cc(=O)c2c(OCC(O)COc3cccc4oc(C(=O)O)cc(=O)c34)cccc2o1
Ki: Not Active
//
Compound: C[C@@H]1C[C@H]2[C@@H]3CCC4=CC(=O)C=C[C@]4(C)C3=CC[C@]2(C)[C@H]1C(=O)CN1CCN(c2cc(N3CCCC3)nc(N3CCCC3)n2)CC1
Ki: Not Active
//
Compound: CC(C)(C)NC[C@H](O)COc1nsnc1N1CCOCC1
Ki: Not Active
//
Compound: CN(Cc1cnc2nc(N)nc(N)c2n1)c1ccc(C(=O)N[C@@H](CCC(=O)O)C(=O)O)cc1 [METHOTREXATE]
Ki: Not Active
//
Compound: Nc1ccc(S(=O)(=O)Nc2ncccn2)cc1
Ki: Not Active
